Here, each record is paired with measured DC50 data.
- target: IRAK4 (Homo sapiens)
- Sequence (Q9NWZ3 1-460): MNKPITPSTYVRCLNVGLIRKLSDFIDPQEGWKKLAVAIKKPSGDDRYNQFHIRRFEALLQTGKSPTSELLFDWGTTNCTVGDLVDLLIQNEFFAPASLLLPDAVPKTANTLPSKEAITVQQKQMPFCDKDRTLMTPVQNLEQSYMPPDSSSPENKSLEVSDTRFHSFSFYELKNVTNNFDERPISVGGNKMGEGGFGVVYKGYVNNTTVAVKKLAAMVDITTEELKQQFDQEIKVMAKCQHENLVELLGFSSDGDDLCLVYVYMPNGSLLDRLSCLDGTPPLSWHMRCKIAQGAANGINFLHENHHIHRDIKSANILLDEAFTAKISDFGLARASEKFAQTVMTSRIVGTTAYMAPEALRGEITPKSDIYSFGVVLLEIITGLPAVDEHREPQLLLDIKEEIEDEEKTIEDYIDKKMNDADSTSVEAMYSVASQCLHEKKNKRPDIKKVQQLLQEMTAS
- test summary: Hibit fluorescence detection of proteolysis (IRAK4-HiBiT in HEK293T cells)
- Format: cell-based
- Parameters: host or cells: HEK293T (ATCC)
- study conditions: IRAK4-HiBiT, HEK293T cells, 24 h
Structures can show the parent of a compound that is named as a salt.
quantity measured: DC50

1) Cn1c(=O)n(C2CCC(=O)NC2=O)c2cccc(N3CCC4(CCN(C[C@H]5CC[C@H](n6cc(-n7cc(-c8cnn9ccc(N%10CCC(C)(O)CC%10)nc89)nn7)c(C(F)F)n6)CC5)CC4)C3)c21 (stereo partly drawn)	< 0.5 nM
2) Cn1c(=O)n(C2CCC(=O)NC2=O)c2cccc(N3CCC4(CCN(C[C@H]5CC[C@H](n6cc(-n7cc(-c8cnn9ccc(N%10CCOCC%10)nc89)nn7)c(C(F)F)n6)CC5)C4)CC3)c21 (stereo partly drawn)	< 0.5 nM
3) Cn1c(=O)n(C2CCC(=O)NC2=O)c2cccc(N3CCN(C[C@H]4CC[C@H](n5cc(-n6cc(-c7cnn8ccc(N9CCNCC9)nc78)nn6)c(C(F)F)n5)CC4)CC3)c21 (stereo partly drawn) [Example 132, dihydrochloride]	0.5 to 1 nM

----------
- target: UniProt Q9NWZ3
- test summary: Hibit fluorescence detection of proteolysis (IRAK4-HiBiT in HEK293T cells)
- Assay type: cell-based
- Set-up: host or cells: HEK293T (ATCC)
- study conditions: IRAK4-HiBiT, HEK293T cells, 24 h
Here, each record is paired with measured DC50 data.
quantity measured: DC50

1. Cn1c(=O)n(C2CCC(=O)NC2=O)c2cccc(N3CCC4(CCN(C[C@H]5CC[C@H](n6cc(-n7cc(-c8cnn9ccc(N[C@H]%10CCCC[C@H]%10O)nc89)nn7)c(C(F)F)n6)CC5)C4)CC3)c21 (stereo partly drawn) [Example 147]	< 0.5 nM
2. NC(=O)c1cnn2c(-c3cn(-c4cn(C5CCN(CC6CN(c7ccc8c(c7)C(=O)N(C7CCC(=O)NC7=O)C8=O)C6)CC5)nc4C(F)F)nn3)ccc2c1 (stereo not drawn) [Example 75]	0.5 to 1 nM
3. Cn1c(=O)n(C2CCC(=O)NC2=O)c2cccc(N3CCC4(CCN(C[C@H]5CC[C@H](n6cc(-n7cc(-c8cnn9ccc(N%10CCC[C@H](N)C%10)nc89)nn7)c(C(F)F)n6)CC5)CC4)CC3)c21 (stereo partly drawn) [Example 120]	0.5 to 1 nM
